Recorded inhibition, one value per entry.
test-method-notes: growth inhibition, single agents and combos, ICB984, cell-based, cisplatin or BGB combos, synergistic combos for chromothripsis tumors (AID 1671451);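 also: cells exposed for 96 hours before readout; 0% = vehicle DMSO and 100% = killing by high DMSO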
details: ICB984 medulloblastoma cells, drug combinations, cisplatin combo, at 5 µM, stronger effect = higher value
Quick reminder: number only, in %, skip the unit.

Field: example entries. Status: answers known.
Cc1cn(C2CC(O)C(COP(=O)(O)OP(=O)(O)OP(=O)(O)O)O2)c(=O)[nH]c1=O (stereo not drawn) ... -24.4
Nc1ncn(C2OC(CO)C(O)C2O)c(=O)n1 (stereo not drawn) ... -9.29

Continue with the compound presented below.
Need inhibition, item "Cc1c(Br)cc(NCC(=O)N/N=C/c2cc([N+](=O)[O-])ccc2O)cc1Br"
-29.5
